Test: Phase 1 single-dose lipid capsule PK and food effect study
Format: in vivo, human
Settings: both sexes, human, plasma, oral; lipid capsules, single dose
readoutName: Tmax

- COc1ccc([C@H]2c3[nH]c4ccc(Cl)cc4c3CCN2C(=O)Oc2ccc(Cl)cc2)cc1: 3 to 6 h

====

Assay: Solubility of the SDI and a surfactant (5% w/w) in aqueous solution, saturated, RT
Format: physicochemical
Settings: 5% w/w Poloxamer 188 aqueous solution, aqueous with cosolvent or surfactant or cyclodextrin, thermodynamic from solid, saturated in 5% w/w Poloxamer 188 aqueous solution, 24 hrs
readoutName: solubility at 24 h (µg/mL)

- COc1ccc([C@H]2c3[nH]c4ccc(Cl)cc4c3CCN2C(=O)Oc2ccc(Cl)cc2)cc1: 4.3
